The measured values listed here are drawn from PubChem BioAssay (NCI).

- System: 786-0 renal
- Method description: NCI-60 one-dose screen, 48 h
- Measurement conditions: 10 µM unless noted
The panel holds about 83,000 compounds, 20% with a hit somewhere; the sample as a whole holds those more often. Calls of active or inactive are those of the source. How the source made its calls: active means growth percent below 10; inactive means the rest.
Your reply should match one of these outcome classes. Yes = active, No = inactive

{"columns": ["Compound", "Assigned label"],
 "data": [
  ["Cc1ccc(-c2nc(C(Cl)Cl)nc3cc(-c4ccccc4)nn23)cc1", "No"],
  ["N#Cc1ccc(C(=O)CSc2nc(Nc3ccc(S(N)(=O)=O)cc3)c3ccccc3n2)cc1", "No"],
  ["CN1C(=S)N(C)C2C1NN=C1SC(c3ccccc3)=CC(=O)N12 (stereo not given)", "No"]
]}

Called result for COc1ccc(-c2nc3ccc(-c4nnc(SCC(=O)Nc5ccc(C(=O)/C=C/c6ccccc6)cc5)o4)cc3[nH]2)cc1OC
No

Answer briefly: the call reported for CNC(=O)c1cc(-c2ccc(NC(=O)Nc3ccc(N4CCOCC4)c(C(F)(F)F)c3)cc2)nc2cccnc12 in this assay.
No

In this assay, the call recorded for C=C1CC[C@H]2[C@@](C)(CCC3OC(c4ccc(OCc5cn(C6CC(OC(C)=O)C(OC(C)=O)C(COC(C)=O)O6)nn5)cc4)OC[C@]32C)[C@@H]1/C=C/C1=CCOC1=O (stereo not given in full) was what?
No

Would you mind telling me which call this test gave CNC(=O)c1cc(-c2ccc(NC(=O)Nc3ccc(N4CCN(C)CC4)c(C(F)(F)F)c3)cc2)nc2cccnc12 ?
Yes

Status in this test for O=c1[nH]c2ccccc2cc1CSc1ccccc1Nc1nccc(-c2ccc(C(F)(F)F)cc2)n1 ?
No

Could you please tell me the result logged for O=c1[nH]c2ccc(Cl)cc2cc1CSc1ccccc1Nc1nccc(-c2ccc(Cl)cc2)n1 in this assay?
No

Which outcome did this test record for the compound CC(O)C(NC(=O)C1CCCN1C(=O)CNC(=O)C1CC(=O)NCC(=O)NC(Cc2c[nH]c3ccccc23)C(=O)NC(Cc2ccc(O)cc2)C(=O)NCC(=O)NC(CO)C(=O)NC(CCC(N)=O)C(=O)NC(Cc2c[nH]c3ccccc23)C(=O)N1)C(=O)NCC(=O)NC(CCC(N)=O)C(=O)NC(CCCNC(=N)N)C(=O)NC(CC(=O)O)C(=O)O (stereo not given) ?
No

Tell me the recorded outcome of this test for O=C(CSc1nnc(-c2ccc3nc(-c4ccc(Cl)cc4)[nH]c3c2)o1)Nc1ccc(C(=O)/C=C/c2ccc(Cl)cc2)cc1 .
No
